systemTested: HDAC6 (Homo sapiens)
Construct: purchased Reaction Biology Corporation (assay run by the CRO)
Sequence (Q9UBN7 whole entry): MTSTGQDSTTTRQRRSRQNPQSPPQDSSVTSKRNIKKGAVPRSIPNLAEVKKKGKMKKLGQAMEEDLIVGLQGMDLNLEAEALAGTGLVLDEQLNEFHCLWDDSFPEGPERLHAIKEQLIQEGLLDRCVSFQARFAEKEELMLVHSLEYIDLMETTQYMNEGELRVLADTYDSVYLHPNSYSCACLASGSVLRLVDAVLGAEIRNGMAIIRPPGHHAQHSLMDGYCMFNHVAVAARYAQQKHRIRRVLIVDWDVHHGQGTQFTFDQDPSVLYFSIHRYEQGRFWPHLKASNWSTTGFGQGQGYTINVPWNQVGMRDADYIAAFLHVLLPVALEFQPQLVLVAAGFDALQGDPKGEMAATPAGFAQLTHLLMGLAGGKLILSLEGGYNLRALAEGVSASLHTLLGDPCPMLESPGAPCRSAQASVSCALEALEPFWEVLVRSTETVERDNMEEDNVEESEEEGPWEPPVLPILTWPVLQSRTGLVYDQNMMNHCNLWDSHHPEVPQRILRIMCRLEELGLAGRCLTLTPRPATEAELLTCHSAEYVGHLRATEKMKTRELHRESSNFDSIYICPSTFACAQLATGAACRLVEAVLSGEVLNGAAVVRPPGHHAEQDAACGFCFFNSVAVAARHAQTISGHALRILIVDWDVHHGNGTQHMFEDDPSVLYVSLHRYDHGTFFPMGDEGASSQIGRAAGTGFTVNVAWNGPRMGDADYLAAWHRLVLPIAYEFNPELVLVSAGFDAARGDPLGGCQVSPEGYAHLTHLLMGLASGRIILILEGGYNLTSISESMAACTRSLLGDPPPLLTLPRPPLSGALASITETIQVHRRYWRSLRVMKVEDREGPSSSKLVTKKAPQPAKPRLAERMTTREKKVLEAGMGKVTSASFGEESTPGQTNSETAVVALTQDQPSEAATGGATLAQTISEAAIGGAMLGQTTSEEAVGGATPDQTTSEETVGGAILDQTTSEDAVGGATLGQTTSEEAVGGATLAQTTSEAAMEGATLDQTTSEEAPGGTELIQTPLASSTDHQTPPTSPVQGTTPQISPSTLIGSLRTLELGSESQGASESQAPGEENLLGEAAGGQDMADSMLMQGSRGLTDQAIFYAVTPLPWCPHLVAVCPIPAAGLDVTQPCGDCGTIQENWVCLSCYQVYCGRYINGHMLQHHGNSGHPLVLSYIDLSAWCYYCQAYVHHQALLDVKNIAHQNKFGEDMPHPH
protocolNotes: HDAC6 inhibition, full IC50 measurement (Reaction Biology; fluorogenic p53 peptide RHKK(Ac)AMC)
Assay type: biochemical
conditionSummary: Conc. 1.37E-08 M, t2
Peptide text beside a SMILES is read from it.
What HDAC6 activity raw data (signal) was measured for each of the following?
Numbers only.

Recorded results for 4 compounds are shown here.
N=C(N)NCCC[C@@H]1NC(=O)[C@H](Cc2c[nH]c3ccccc23)NC(=O)[C@H](CC(=O)O)NC(=O)[C@@H](CO)NC(=O)[C@H](Cc2c[nH]c3ccccc23)NC(=O)[C@H](CCCCCS)NC(=O)[C@H](CCC(N)=O)NC1=O [des4.1.0, SHA-Trp-dSer-Asp-Trp-Arg-Gln] (HELM PEPTIDE1{D.W.R.Q.[O=C([C@H](CCCCCS)N[*:1])[*:2]].W.[dS]}$PEPTIDE1,PEPTIDE1,1:R1-7:R2$$$V2.0); 1633652
CC(C)[C@@H]1NC(=O)[C@H](CCCNC(=N)N)NC(=O)[C@@H](CC(=O)O)NC(=O)[C@H](CO)NC(=O)[C@@H](CO)NC(=O)[C@@H](CCC(=O)O)NC(=O)[C@H](Cc2ccc(O)cc2)NC(=O)[C@H](CCCCCS)NC1=O [des4.2.0, SHA-Tyr-dGlu-dSer-Ser-dAsp-Arg-Val] (HELM PEPTIDE1{R.V.[O=C([C@H](CCCCCS)N[*:1])[*:2]].Y.[dE].[dS].S.[dD]}$PEPTIDE1,PEPTIDE1,1:R1-8:R2$$$V2.0); 820159
NCCCC[C@H]1NC(=O)[C@H](CCC(N)=O)NC(=O)[C@H](CCC(=O)O)NC(=O)[C@@H]2CCCN2C(=O)[C@H](CC(N)=O)NC(=O)[C@H](CCCCCS)NC(=O)CNC(=O)[C@H](Cc2c[nH]c3ccccc23)NC1=O [des1.1.1, SHA-Asn-Pro-Glu-Gln-dLys-Trp-Gly] (HELM PEPTIDE1{E.Q.[dK].W.G.[O=C([C@H](CCCCCS)N[*:1])[*:2]].N.P}$PEPTIDE1,PEPTIDE1,1:R1-8:R2$$$V2.0); 355429
CCCC[C@H]1NC(=O)[C@H](CC(=O)O)NC(=O)[C@@H](CO)NC(=O)[C@@H](C)NC(=O)[C@H](CCCCN)NC(=O)[C@@H](CCCCN)NC(=O)[C@H](Cc2ccccc2)NC(=O)[C@H](CCCCCS)NC1=O [des4.3.1.2, SHA-Phe-dLys-Lys-dAla-dSer-Asp-dNle] (HELM PEPTIDE1{D.[CCCC[C@@H](N[*:1])C(=O)[*:2]].[O=C([C@H](CCCCCS)N[*:1])[*:2]].F.[dK].K.[dA].[dS]}$PEPTIDE1,PEPTIDE1,1:R1-8:R2$$$V2.0); 1641196

Now for the compound whose HDAC6 activity raw data (signal) we want.
The measured HDAC6 activity raw data (signal) that CCCC[C@H]1NC(=O)[C@H](Cc2ccccc2)NC(=O)[C@H](CCCCCS)NC(=O)[C@@H](CCCNC(=N)N)NC(=O)[C@H](C)NC(=O)[C@@H](CO)NC(=O)[C@@H](C)NC(=O)[C@H](CCCCN)NC1=O [des4.3.1.3, SHA-Phe-dNle-Lys-dAla-dSer-Ala-dArg] (HELM PEPTIDE1{A.[dR].[O=C([C@H](CCCCCS)N[*:1])[*:2]].F.[CCCC[C@@H](N[*:1])C(=O)[*:2]].K.[dA].[dS]}$PEPTIDE1,PEPTIDE1,1:R1-8:R2$$$V2.0) showed for HDAC6 (Homo sapiens) is 730719
